molecules and their reported Emax
- ASSAYED_TARGET: cloned human GLP-1 receptor (Homo sapiens, UniProt P43220)
- Construct: expressed in transfected cells; host or cells: CHO or HEK-293 cells
- Sequence (P43220 24-463): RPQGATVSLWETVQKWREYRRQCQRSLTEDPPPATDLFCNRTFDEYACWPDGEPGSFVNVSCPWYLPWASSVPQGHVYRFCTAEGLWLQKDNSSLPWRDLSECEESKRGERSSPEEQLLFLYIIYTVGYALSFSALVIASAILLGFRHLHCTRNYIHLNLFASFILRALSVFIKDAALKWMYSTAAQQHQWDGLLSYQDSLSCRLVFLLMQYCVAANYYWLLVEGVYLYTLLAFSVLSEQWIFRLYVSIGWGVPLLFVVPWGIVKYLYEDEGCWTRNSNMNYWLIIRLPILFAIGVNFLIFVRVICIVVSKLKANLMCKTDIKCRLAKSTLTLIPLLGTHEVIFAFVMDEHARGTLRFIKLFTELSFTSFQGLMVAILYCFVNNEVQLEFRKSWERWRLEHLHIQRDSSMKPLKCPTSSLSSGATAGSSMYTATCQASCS
- EXPERIMENTAL_DETAILS: Functional cell-based assay: cAMP functional assay
- CONDITION_DETAILS: 0.5 h; percentage relative to maximal GLP-1-induced cAMP accumulation; na = not active in the assay; read-out: % activation
Lab book: enter the figure in %, no units written.

MOLECULE	UNIT_OF_MEASURE	Emax
CC(C)C(=O)N1Cc2cc3c(cc2C[C@H]1C(=O)N[C@@H](Cc1ccc(-c2ccc(C#N)cc2)cc1)C(=O)O)NC(=O)C(c1ccc(OCc2ccc(Cl)c(Cl)c2)cc1)O3 (some centres unmarked)	%	59

// switching to the query molecule
IN: Return reported Emax; argument: CC(=O)Nc1nc(C)c(S(=O)(=O)N2Cc3cc4c(cc3C[C@H]2C(=O)N[C@@H](Cc2ccc(-c3ccc(C#N)cc3)cc2)C(=O)O)NC(=O)C(c2ccc(OCc3ccc(Cl)c(Cl)c3)cc2)O4)s1 (single isomer, unassigned)
OUT: 25
